The reported numbers originate from PubChem BioAssay (NCI).

# Test system: PC-3 prostate
# assay-notes: NCI tumour cell line growth inhibition, 48 h; in the data active = GI50 below about 0.43 µM; inactive = the rest
Pick one and only one: class 1 for active, class 0 for inactive

Answered cases to consult:
1. S=C(NCCNC(=S)[S][Sn]([c]1ccccc1)([c]1ccccc1)[c]1ccccc1)[S][Sn]([c]1ccccc1)([c]1ccccc1)[c]1ccccc1 :: class 1
2. COc1cc2c(cc1Cc1cccc(Cl)c1F)c(=O)c(C(=O)O)cn2[C@@H](CO)C(C)C :: class 0

Dear all, I need the recorded test outcome for `Cc1cc(Nc2ncc3c(n2)N(C)C(=O)N(c2cc(NC(=O)c4cccc(C(F)(F)F)c4)ccc2C)C3)n(C)n1` , thank you.
class 1

Queued: `C[C@@H](NC(=O)/C(C#N)=C/c1ccc([N+](=O)[O-])cc1)c1ccccc1`
class 0

Queued: CCN1C(=O)N(CC)C2C1NN=c1s/c(=C\c3ccco3)c(=O)n12 (stereo not given)
class 0

###

# Test system: MALME-3M melanoma
# assay-notes: NCI tumour cell line growth inhibition, 48 h
measurement-name: TGI

1. COC(=O)C(C)(C)[C@@H]1OC(=O)N(S(=O)(=O)c2c(C)cc(C)cc2C)[C@H]1C(C)C :: > 100 µM
2. O=c1[nH]nc(Cc2ccccc2)n1CCCl :: > 100 µM

Give measured TGI for every item shown.
1. O=C(O)CCc1nc2ccccc2[nH]1
2. N=N/C(=C\c1c(O)[nH]c2ccccc12)c1ccccc1
3. CCCCC(C(=O)CCC(=O)Nc1ccc(Cl)c(Cl)c1)C(=O)C(C)C (centres undefined)
4. O=C(Nc1cccc(C(F)(F)F)c1)C(=O)C1NC(=S)NC1=O (centres undefined)
5. O[C@H]1[C@H](O)[C@@H](O)[C@@]2(O)CC[C@@H]1N2
6. Cc1nc(-c2nc(-c3ccc(OC(F)(F)F)cc3)no2)nn1Cc1cccc(N2CCC(S(C)(=O)=O)CC2)c1
7. CCOC(=O)c1cc(C(=O)c2cc(OC)c(OC)c(OC)c2)n2c1ccc1ccccc12

1: > 100 µM; 2: > 78 µM; 3: > 100 µM; 4: > 100 µM; 5: > 100 µM; 6: > 76.8 µM; 7: > 100 µM

###

I'd appreciate it if you could supply TGI values for the items below.
# System: ACHN renal
# assay-notes: NCI tumour cell line growth inhibition, 48 h
Answers are plain numbers, in µM.

1) Cc1ccc2c(c1)c(Sc1ccc(C(=O)NO)cc1)c1n2CN(C)CC1 :: 8.63

Here's the next entry for you.
Consider the compound shown here: `O=[N+]([O-])c1cc([N+](=O)[O-])c(/C=C/c2ccc(Cl)c(Cl)c2)cc1/C=C/c1ccc(Cl)c(Cl)c1` What is its recorded TGI?
81.9

###

# Tested on: NCI-H460 lung
# assay-notes: NCI tumour cell line growth inhibition, 48 h
I'd appreciate it if you could supply TGI values for the items below.

Illustrative cases are given below, each with its answer.
1. COc1cc(C(=O)N2CCN(c3ccccc3)CC2)c2ccccc2n1 :: 4.1 µM
2. CCOC(=O)CCSc1nc2ccc(I)cc2c(=O)n1Cc1ccccc1 :: > 100 µM
3. O=c1[nH]nc(Cc2ccccc2)n1CCCl :: > 100 µM

Give measured TGI for every item shown.
1. Cn1c(=O)c2c(nc3sc4c(n32)C(=O)c2c(O)ccc(O)c2C4=O)n(C)c1=O
2. CN1CCC2(CC1)NC(=O)c1c(c3ccc(Cl)c(Cl)c3n1C)C2C#N (stereo not given)
3. COC(=O)C1=C(OC(=O)/C(=C/c2ccccc2)c2ccc(Cl)cc2)C(C(=O)OC)[C@@]2(O)[C@@H](C(=O)OC)[C@H](C)C[C@@H]1[C@@H]2C(=O)OC (stereo not given in full)
4. CC(=O)Oc1ccc2cc(Oc3ccc(Cl)c(Cl)c3)c(=O)oc2c1

1: > 59.4 µM; 2: 14.3 µM; 3: > 100 µM; 4: 66 µM

Give measured TGI for every item shown.
1. C/C(=N\NC(=S)N(C)C)c1nc2ncccc2[nH]1
2. C/C(CC(=O)Nc1cc(C)ccc1C)=N/N=C(N)N
3. OCCCNc1ccnc2cc(Cl)ccc12

1. > 100 µM
2. > 100 µM
3. > 100 µM
